Source listed as patent US9796711B2.

# Tested target: ΔF508-CFTR (Homo sapiens, UniProt P13569, DEL508-508)
# Construct: host or cells: CFBE41o-, doxycycline-inducible
# Sequence (P13569 with tags, fused parts or gaps DEL508-508): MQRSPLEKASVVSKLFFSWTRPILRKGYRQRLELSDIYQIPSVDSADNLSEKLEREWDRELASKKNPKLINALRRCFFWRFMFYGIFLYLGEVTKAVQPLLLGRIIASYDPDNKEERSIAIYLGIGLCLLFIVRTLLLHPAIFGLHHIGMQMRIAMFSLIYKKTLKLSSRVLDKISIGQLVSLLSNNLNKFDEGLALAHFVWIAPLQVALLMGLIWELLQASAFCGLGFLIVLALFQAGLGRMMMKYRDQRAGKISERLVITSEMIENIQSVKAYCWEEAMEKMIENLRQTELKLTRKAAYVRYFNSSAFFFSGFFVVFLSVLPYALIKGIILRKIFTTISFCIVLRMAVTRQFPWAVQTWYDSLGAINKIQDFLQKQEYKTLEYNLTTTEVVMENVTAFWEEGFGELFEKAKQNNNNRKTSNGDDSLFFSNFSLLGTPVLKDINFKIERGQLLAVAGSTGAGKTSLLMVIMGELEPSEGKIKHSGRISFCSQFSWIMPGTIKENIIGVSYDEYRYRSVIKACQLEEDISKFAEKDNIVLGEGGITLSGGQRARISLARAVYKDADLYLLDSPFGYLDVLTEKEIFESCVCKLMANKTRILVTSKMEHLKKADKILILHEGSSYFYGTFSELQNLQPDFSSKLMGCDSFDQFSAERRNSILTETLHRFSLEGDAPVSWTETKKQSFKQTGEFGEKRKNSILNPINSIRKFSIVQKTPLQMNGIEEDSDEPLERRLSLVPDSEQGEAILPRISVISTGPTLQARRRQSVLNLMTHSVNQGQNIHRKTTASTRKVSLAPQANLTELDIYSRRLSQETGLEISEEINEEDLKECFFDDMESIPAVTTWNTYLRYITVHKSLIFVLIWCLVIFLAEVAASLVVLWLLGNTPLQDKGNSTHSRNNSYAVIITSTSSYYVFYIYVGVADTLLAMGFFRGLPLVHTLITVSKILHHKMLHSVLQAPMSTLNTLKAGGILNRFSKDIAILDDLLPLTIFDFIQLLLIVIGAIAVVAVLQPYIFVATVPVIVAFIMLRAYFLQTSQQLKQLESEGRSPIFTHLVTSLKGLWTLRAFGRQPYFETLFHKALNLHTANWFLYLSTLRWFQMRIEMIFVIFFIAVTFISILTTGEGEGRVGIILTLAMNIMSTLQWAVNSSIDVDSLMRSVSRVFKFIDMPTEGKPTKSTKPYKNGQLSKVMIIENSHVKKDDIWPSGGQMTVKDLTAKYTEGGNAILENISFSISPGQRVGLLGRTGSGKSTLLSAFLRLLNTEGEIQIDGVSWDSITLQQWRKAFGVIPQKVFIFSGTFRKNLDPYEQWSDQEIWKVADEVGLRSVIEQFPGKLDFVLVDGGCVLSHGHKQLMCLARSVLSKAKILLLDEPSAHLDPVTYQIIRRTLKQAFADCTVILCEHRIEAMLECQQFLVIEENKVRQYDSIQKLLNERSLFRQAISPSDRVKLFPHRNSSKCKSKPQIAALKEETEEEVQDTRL
# Assay procedure: CFTR cell surface levels using HRP-tagged ΔF508-CFTR expressing CFBE cells, intrinsic corrector capacity
# Format: cell-based
# Particulars: HRP-tagged ΔF508-CFTR CFBE cells; compound alone (intrinsic corrector capacity); 20 hours at 33° C.; read-out: EC50
Result type: EC50
Put your answer as a value accompanied by its unit after it.

Would you please look over these solved cases?
Compound | EC50
CC(C)Oc1cccc(-n2nc(C3CCC3)c3c(N4CCC(N5CCOCC5)CC4)cc(C(=O)O)nc32)n1 [compound 924] | 0.42 µM
COc1cc(F)cc(-n2nc(C3CCC3)c3c(N4CCC(N5CCOCC5)CC4)cc(C(=O)O)nc32)c1 [compound 913] | 1.15 µM
O=C(O)c1cc(N2CCC(N3CCOCC3)CC2)c2c(C3CCC3)nn(-c3cc(F)ccc3F)c2n1 [compound 916] | 1.67 µM
COC1CCN(C2CCN(c3cc(C(=O)O)nc4c3c(OC(C)C)nn4-c3ccc(F)cc3)CC2)CC1 [compound 926] | 0.521 µM

Task: Supply EC50 value. Item: CCOC(=O)N1CCN(c2cc(C(=O)O)nc3c2c(C2CCC2)nn3-c2ccc(F)cc2)CC1 [compound 929]
Result: 0.181 µM

Task: Please supply the value of reported EC50 for the item O=C(O)c1cc(N2CCC(N3CCOCC3)CC2)c2c(C3CCC3)nn(-c3ccnc(OCC4CCOCC4)c3)c2n1 [compound 919]
Result: 0.49 µM

Task: Identify measured EC50 associated with CC(C)Oc1nn(C2CCCCC2)c2nc(C(=O)O)cc(-c3ccc(C#N)cc3)c12 [compound 923]
Result: 0.355 µM
